- EXPERIMENT_SUMMARY: Phase I study CXR1002-001: plasma pharmacokinetics (LC-MS/MS)
- Type: in vivo, human
- RUN_CONDITIONS: human, plasma, oral, 300 mg, Patient 011 Dose 300 mg; 360 hr (Day 16); read-out: Concentration
QUANTITY_MEASURED: concentration at 360 h (µM)
A number alone suffices; assume µM.

**Q:** // concentration at 360 h lookup, key: O=C(O)C(F)(F)C(F)(F)C(F)(F)C(F)(F)C(F)(F)C(F)(F)C(F)(F)F [CXR1002]
**A:** 237

* * *

- EXPERIMENT_SUMMARY: Phase I study CXR1002-001: plasma pharmacokinetics (LC-MS/MS)
- Format: in vivo, human
- RUN_CONDITIONS: human, plasma, oral, 50 mg, Patient 001 Dose 50 mg; 0.75 hr
QUANTITY_MEASURED: concentration at 0.75 hr (µM)
A number alone suffices; assume µM.

**Q:** // concentration at 0.75 hr lookup, key: O=C(O)C(F)(F)C(F)(F)C(F)(F)C(F)(F)C(F)(F)C(F)(F)C(F)(F)F [CXR1002]
**A:** 9.17
